Test: Pilot pharmacokinetic study of intranasal flunixin, three catheter sites
Assay type: in vivo
Settings: female, Yorkshire cross, pig, plasma, inhaled or intranasal, 3 mg/kg, 3.0 mg/kg IN; one grower pig; jugular vein; read-out: area under the curve (AUC) (converted)

| Entry Smiles | AUC (ng·h/mL) |
| --- | --- |
| Cc1c(Nc2ncccc2C(=O)O)cccc1C(F)(F)F | 12800 |

----------
Test: Pilot pharmacokinetic study of intranasal flunixin, three catheter sites
Format: in vivo
Settings: female, Yorkshire cross, pig, plasma, inhaled or intranasal, 3 mg/kg, 3.0 mg/kg IN; one grower pig; femoral artery; read-out: area under the curve (AUC) (converted)

| Entry Smiles | Unit Label | AUC |
| --- | --- | --- |
| Cc1c(Nc2ncccc2C(=O)O)cccc1C(F)(F)F | ng·h/mL | 12300 |
